Test: Half life of the compound in 25% plasma
Format: ADME, cell-free
Peptide text beside a SMILES is read from it.
Reported half-life values for a set of compounds

Consider the following illustrative entries.
CC(C)C[C@H](NC(=O)[C@H](Cc1ccccc1)NC(=O)[C@@H]1CCCN1C(=O)[C@H](Cc1c[nH]c2ccccc12)NC(=O)[C@H](Cc1c[nH]c2ccccc12)NC(=O)[C@H](Cc1c[nH]c2ccccc12)NC(=O)[C@@H]1CCCN1C(=O)[C@H](Cc1ccccc1)NC(=O)[C@H](CCCNC(=N)N)NC(=O)[C@H](CCCNC(=N)N)NC(=O)[C@@H](N)C(C)C)C(=O)N[C@@H](CCCNC(=N)N)C(=O)N[C@@H](CCCNC(=N)N)C(=O)O    1.7 h
CC[C@H](C)[C@H](NC(=O)[C@H](CCCCN)NC(=O)[C@@H](NC(=O)[C@H](CCCCN)NC(=O)[C@@H]1CCCN1C(=O)[C@H](Cc1c[nH]c2ccccc12)NC(=O)[C@H](Cc1c[nH]c2ccccc12)NC(=O)[C@H](Cc1c[nH]c2ccccc12)NC(=O)[C@@H]1CCCN1C(=O)[C@H](CCCCN)NC(=O)[C@@H](NC(=O)[C@H](CCCCN)NC(=O)[C@@H](NC(=O)[C@@H](N)CCCCN)[C@@H](C)CC)[C@@H](C)CC)[C@@H](C)CC)C(=O)N[C@@H](CCCCN)C(N)=O (H-KIKIKPWWWPKIKIK-NH2)    75.5 h

Let's switch to this compound now.
## Input Tell me the measured half-life of CC(C)C[C@H](NC(=O)[C@H](CCCCN)NC(=O)[C@H](CC(C)C)NC(=O)[C@H](CCCCN)NC(=O)[C@@H]1CCCN1C(=O)[C@H](Cc1c[nH]c2ccccc12)NC(=O)[C@H](Cc1c[nH]c2ccccc12)NC(=O)[C@H](Cc1c[nH]c2ccccc12)NC(=O)[C@@H]1CCCN1C(=O)[C@H](CCCCN)NC(=O)[C@H](CC(C)C)NC(=O)[C@H](CCCCN)NC(=O)[C@H](CC(C)C)NC(=O)[C@@H](N)CCCCN)C(=O)N[C@@H](CCCCN)C(N)=O (H-KLKLKPWWWPKLKLK-NH2) , please.
## Output 35.4 h

* * *

Tested on: Klebsiella pneumoniae
Assay: Antimicrobial activity against multi-drug resistant Klebsiella pneumoniae assessed as reduction in bacterial growth by broth dilution method
Assay type: functional
Peptide text beside a SMILES is read from it.
EXPERIMENTAL_ENDPOINT: MIC (µM)
All answers are understood in µM, so give the number only.

## Input Request - read-out MIC | tested on Klebsiella pneumoniae | molecule NCCCC[C@H](NC(=O)[C@H](Cc1ccccc1)NC(=O)[C@H](CCCCN)NC(=O)[C@H](Cc1ccccc1)NC(=O)[C@H](CCCCN)NC(=O)[C@@H]1CCCN1C(=O)[C@H](Cc1c[nH]c2ccccc12)NC(=O)[C@H](Cc1c[nH]c2ccccc12)NC(=O)[C@H](Cc1c[nH]c2ccccc12)NC(=O)[C@@H]1CCCN1C(=O)[C@H](CCCCN)NC(=O)[C@H](Cc1ccccc1)NC(=O)[C@H](CCCCN)NC(=O)[C@H](Cc1ccccc1)NC(=O)[C@@H](N)CCCCN)C(N)=O (H-KFKFKPWWWPKFKFK-NH2)
## Output 4

* * *

Test system: L02
Assay: Cytotoxicity against human LO2 cells at 2 to 256 uM measured after 24 hrs by CCK-8 method
Assay type: toxicity, cell-based
Details: l02, 24 h, dose 2-256 µM
Peptide text beside a SMILES is read from it.
EXPERIMENTAL_ENDPOINT: Activity

NCCCC[C@H](NC(=O)[C@H](Cc1ccccc1)NC(=O)[C@H](CCCCN)NC(=O)[C@H](Cc1ccccc1)NC(=O)[C@H](CCCCN)NC(=O)[C@@H]1CCCN1C(=O)[C@H](Cc1c[nH]c2ccccc12)NC(=O)[C@H](Cc1c[nH]c2ccccc12)NC(=O)[C@H](Cc1c[nH]c2ccccc12)NC(=O)[C@@H]1CCCN1C(=O)[C@H](CCCCN)NC(=O)[C@H](Cc1ccccc1)NC(=O)[C@H](CCCCN)NC(=O)[C@H](Cc1ccccc1)NC(=O)[C@@H](N)CCCCN)C(N)=O (H-KFKFKPWWWPKFKFK-NH2)    Toxic

* * *

Assay: Hemolytic activity in human Red blood cell assessed as hemolysis incubated for 1 hrs by microplate reader based analysis
Assay type: toxicity
Details: erythrocyte
Peptide text beside a SMILES is read from it.
EXPERIMENTAL_ENDPOINT: HC10 (µM)
All answers are understood in µM, so give the number only.

NCCCC[C@H](NC(=O)[C@H](Cc1c[nH]c2ccccc12)NC(=O)[C@H](CCCCN)NC(=O)[C@H](Cc1c[nH]c2ccccc12)NC(=O)[C@@H]1CCCN1C(=O)[C@H](Cc1c[nH]c2ccccc12)NC(=O)[C@H](Cc1c[nH]c2ccccc12)NC(=O)[C@H](Cc1c[nH]c2ccccc12)NC(=O)[C@@H]1CCCN1C(=O)[C@H](Cc1c[nH]c2ccccc12)NC(=O)[C@H](CCCCN)NC(=O)[C@H](Cc1c[nH]c2ccccc12)NC(=O)[C@@H](N)CCCCN)C(N)=O (H-KWKWPWWWPWKWK-NH2)    10.37

## Input Tell me the measured HC10 of NCCCC[C@H](NC(=O)[C@H](Cc1ccccc1)NC(=O)[C@H](CCCCN)NC(=O)[C@H](Cc1ccccc1)NC(=O)[C@H](CCCCN)NC(=O)[C@H](Cc1ccccc1)NC(=O)[C@@H]1CCCN1C(=O)[C@H](Cc1c[nH]c2ccccc12)NC(=O)[C@H](Cc1c[nH]c2ccccc12)NC(=O)[C@H](Cc1c[nH]c2ccccc12)NC(=O)[C@@H]1CCCN1C(=O)[C@H](Cc1ccccc1)NC(=O)[C@H](CCCCN)NC(=O)[C@H](Cc1ccccc1)NC(=O)[C@H](CCCCN)NC(=O)[C@H](Cc1ccccc1)NC(=O)[C@@H](N)CCCCN)C(N)=O (H-KFKFKFPWWWPFKFKFK-NH2) , please.
## Output 6.39

* * *

Test system: Klebsiella pneumoniae
Test: Antimicrobial activity against multi-drug resistant Klebsiella pneumoniae assessed as reduction in bacterial growth by broth dilution method
Format: functional
Peptide text beside a SMILES is read from it.
Reported MIC values for a set of compounds
All answers are understood in µM, so give the number only.

CC(C)C[C@H](NC(=O)[C@H](Cc1ccccc1)NC(=O)[C@@H]1CCCN1C(=O)[C@H](Cc1c[nH]c2ccccc12)NC(=O)[C@H](Cc1c[nH]c2ccccc12)NC(=O)[C@H](Cc1c[nH]c2ccccc12)NC(=O)[C@@H]1CCCN1C(=O)[C@H](Cc1ccccc1)NC(=O)[C@H](CCCNC(=N)N)NC(=O)[C@H](CCCNC(=N)N)NC(=O)[C@@H](N)C(C)C)C(=O)N[C@@H](CCCNC(=N)N)C(=O)N[C@@H](CCCNC(=N)N)C(=O)O    256
NCCCC[C@H](NC(=O)[C@H](Cc1ccccc1)NC(=O)[C@H](CCCCN)NC(=O)[C@H](Cc1ccccc1)NC(=O)[C@H](CCCCN)NC(=O)[C@H](Cc1ccccc1)NC(=O)[C@@H]1CCCN1C(=O)[C@H](Cc1c[nH]c2ccccc12)NC(=O)[C@H](Cc1c[nH]c2ccccc12)NC(=O)[C@H](Cc1c[nH]c2ccccc12)NC(=O)[C@@H]1CCCN1C(=O)[C@H](Cc1ccccc1)NC(=O)[C@H](CCCCN)NC(=O)[C@H](Cc1ccccc1)NC(=O)[C@H](CCCCN)NC(=O)[C@H](Cc1ccccc1)NC(=O)[C@@H](N)CCCCN)C(N)=O (H-KFKFKFPWWWPFKFKFK-NH2)    16
NCCCC[C@H](NC(=O)[C@H](Cc1c[nH]c2ccccc12)NC(=O)[C@H](CCCCN)NC(=O)[C@H](Cc1c[nH]c2ccccc12)NC(=O)[C@H](CCCCN)NC(=O)[C@@H]1CCCN1C(=O)[C@H](Cc1c[nH]c2ccccc12)NC(=O)[C@H](Cc1c[nH]c2ccccc12)NC(=O)[C@H](Cc1c[nH]c2ccccc12)NC(=O)[C@@H]1CCCN1C(=O)[C@H](CCCCN)NC(=O)[C@H](Cc1c[nH]c2ccccc12)NC(=O)[C@H](CCCCN)NC(=O)[C@H](Cc1c[nH]c2ccccc12)NC(=O)[C@@H](N)CCCCN)C(N)=O (H-KWKWKPWWWPKWKWK-NH2)    4

Let's switch to this compound now.
## Input Tell me the measured MIC of CC(C)[C@H](NC(=O)[C@H](CCCCN)NC(=O)[C@@H](NC(=O)[C@H](CCCCN)NC(=O)[C@@H]1CCCN1C(=O)[C@H](Cc1c[nH]c2ccccc12)NC(=O)[C@H](Cc1c[nH]c2ccccc12)NC(=O)[C@H](Cc1c[nH]c2ccccc12)NC(=O)[C@@H]1CCCN1C(=O)[C@H](CCCCN)NC(=O)[C@@H](NC(=O)[C@H](CCCCN)NC(=O)[C@@H](NC(=O)[C@@H](N)CCCCN)C(C)C)C(C)C)C(C)C)C(=O)N[C@@H](CCCCN)C(N)=O (H-KVKVKPWWWPKVKVK-NH2) , please.
## Output 32
